target: BTK wild type (Homo sapiens (Human)); test: Inhibition assay of BTK kinase activity (HTRF); assay type: biochemical; conditions: read-out: BTK IC50
Sequence (Q06187 whole entry): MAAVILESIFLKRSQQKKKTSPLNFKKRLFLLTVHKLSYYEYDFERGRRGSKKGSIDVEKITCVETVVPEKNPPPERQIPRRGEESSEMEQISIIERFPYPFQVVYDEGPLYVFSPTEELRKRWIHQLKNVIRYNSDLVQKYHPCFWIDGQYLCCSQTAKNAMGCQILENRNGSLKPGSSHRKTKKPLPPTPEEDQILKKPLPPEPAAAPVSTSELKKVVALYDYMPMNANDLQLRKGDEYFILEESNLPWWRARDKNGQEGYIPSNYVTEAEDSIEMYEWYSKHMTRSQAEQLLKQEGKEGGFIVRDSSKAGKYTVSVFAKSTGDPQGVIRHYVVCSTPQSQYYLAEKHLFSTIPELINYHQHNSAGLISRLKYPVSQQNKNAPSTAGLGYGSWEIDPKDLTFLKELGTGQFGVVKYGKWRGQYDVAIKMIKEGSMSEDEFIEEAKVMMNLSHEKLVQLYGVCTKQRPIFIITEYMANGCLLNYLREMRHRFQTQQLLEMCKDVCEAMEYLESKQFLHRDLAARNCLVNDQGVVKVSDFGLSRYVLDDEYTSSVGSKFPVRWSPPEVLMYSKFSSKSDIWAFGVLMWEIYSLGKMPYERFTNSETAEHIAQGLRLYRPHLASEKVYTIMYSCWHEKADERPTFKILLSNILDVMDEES
Listed next: entries and their corresponding pIC50.
Kindly note that pIC50 refers to -log10 of the concentration in mol/L and answer with the value alone.

COMPOUND: N#CC(=O)N1CC[C@@H](n2nc(-c3ccc(Oc4c(F)c(F)cc(F)c4F)cc3F)c3c(N)ncnc32)C1
pIC50: 6.97

Reported pIC50 for Cc1oncc1C(=O)N1CCCC(n2nc(-c3ccc(C(=O)c4cccc(F)c4)cc3F)c3c(N)ncnc32)C1 (stereo not drawn) : what is it?
6.86

// lookup pIC50 for "C/C=C/C(=O)N1CC[C@@H](n2nc(-c3ccc(Oc4c(F)c(F)cc(F)c4F)cc3F)c3c(N)ncnc32)C1"
6.97

###

biological target: UniProtKB Q06187; assay: Inhibition assay of BTK kinase activity (HTRF); type: biochemical; settings: read-out: BTK IC50
MEASUREMENT NAME: pIC50
Please note pIC50 is a logarithmic value: minus log10 of concentration in mol/L. Answer with that number alone.

Reference set (2 entries):
MOLECULE: C=CC(=O)N1CC[C@@H](n2nc(-c3ccc(Oc4ccnc5ccccc45)cc3F)c3c(N)ncnc32)C1 [Compound 90]
MEASUREMENT NAME: pIC50
EXPERIMENTAL VALUE: 7.82
//
MOLECULE: C=CC(=O)N1CCCC(Cn2nc(-c3ccc(Oc4c(F)c(F)cc(F)c4F)cc3F)c3c(N)ncnc32)C1 (stereo not drawn) [Compound 31]
MEASUREMENT NAME: pIC50
EXPERIMENTAL VALUE: 7.82

Switching to the query record.
pIC50 lookup needed for C=CC(=O)N1CC[C@@H](n2nc(-c3ccc(Oc4ccnc(C(=O)NC)c4)cc3F)c3c(N)ncnc32)C1 [Compound 88] , thanks.
7.96
